For each entry below, report its IC50 value.
Test system: SW620/Ad300
Construct: doxorubicin-selected, P-gp overexpressing
Experiment: cells
Design: MTT cytotoxicity assay, absorbance at 570 nm
Details: Homo sapiens, SW620/AD300, 72 h

molecule | testTarget | IC50
CC1=CCC2C(CCC2(C)O)C(C)(C)C1CCC1C(C)(O)CCC2OC(C)(C)C(OC(=O)c3ccccc3)CCC21C (stereo not drawn) | SW620/Ad300 | > 30 µM

Quick one: give me IC50 for each item below, same order please.
1. CC1=CCC2C(CCC2(C)O)C(C)(C)C1CCC1C(C)(O)CCC2OC(C)(C)C(OC(=O)CCC(=O)O)CCC21C (stereo not drawn)
2. CC(=O)O[C@H]1CC[C@]2(C)[C@H](CC[C@@](C)(O)[C@H]2CC[C@H]2C(C)=CC[C@H]3[C@H](CC[C@]3(C)O)C2(C)C)OC1(C)C [SSJ26, sipholenol A-4-O-acetate]
3. CC1=CCC2C1CC=C(C)C(CCC1C(C)(O)CCC3OC(C)(C)C(OC(=O)c4ccccc4)CCC31C)C2(C)C (stereo not drawn)
4. CC1=CC[C@H]2[C@H](CC[C@]2(C)O)C(C)(C)[C@H]1CC[C@H]1[C@]2(C)CC[C@H](OC(=O)c3ccncc3)C(C)(C)O[C@H]2CC[C@@]1(C)O [SSJ32, sipholenol A-4-O-isonicotinate]
5. CC(=O)OC1CCC2(C)C(CCC(C)(O)C2CCC2C(C)=CCC3C(CCC3(C)OC(C)=O)C2(C)C)OC1(C)C (stereo not drawn)

1: > 30 µM; 2: > 30 µM; 3: > 30 µM; 4: > 30 µM; 5: > 30 µM

---

Molecular target: P-glycoprotein (P-gp/ABCB1) (Homo sapiens, UniProt P08183)
Sequence (P08183 whole entry): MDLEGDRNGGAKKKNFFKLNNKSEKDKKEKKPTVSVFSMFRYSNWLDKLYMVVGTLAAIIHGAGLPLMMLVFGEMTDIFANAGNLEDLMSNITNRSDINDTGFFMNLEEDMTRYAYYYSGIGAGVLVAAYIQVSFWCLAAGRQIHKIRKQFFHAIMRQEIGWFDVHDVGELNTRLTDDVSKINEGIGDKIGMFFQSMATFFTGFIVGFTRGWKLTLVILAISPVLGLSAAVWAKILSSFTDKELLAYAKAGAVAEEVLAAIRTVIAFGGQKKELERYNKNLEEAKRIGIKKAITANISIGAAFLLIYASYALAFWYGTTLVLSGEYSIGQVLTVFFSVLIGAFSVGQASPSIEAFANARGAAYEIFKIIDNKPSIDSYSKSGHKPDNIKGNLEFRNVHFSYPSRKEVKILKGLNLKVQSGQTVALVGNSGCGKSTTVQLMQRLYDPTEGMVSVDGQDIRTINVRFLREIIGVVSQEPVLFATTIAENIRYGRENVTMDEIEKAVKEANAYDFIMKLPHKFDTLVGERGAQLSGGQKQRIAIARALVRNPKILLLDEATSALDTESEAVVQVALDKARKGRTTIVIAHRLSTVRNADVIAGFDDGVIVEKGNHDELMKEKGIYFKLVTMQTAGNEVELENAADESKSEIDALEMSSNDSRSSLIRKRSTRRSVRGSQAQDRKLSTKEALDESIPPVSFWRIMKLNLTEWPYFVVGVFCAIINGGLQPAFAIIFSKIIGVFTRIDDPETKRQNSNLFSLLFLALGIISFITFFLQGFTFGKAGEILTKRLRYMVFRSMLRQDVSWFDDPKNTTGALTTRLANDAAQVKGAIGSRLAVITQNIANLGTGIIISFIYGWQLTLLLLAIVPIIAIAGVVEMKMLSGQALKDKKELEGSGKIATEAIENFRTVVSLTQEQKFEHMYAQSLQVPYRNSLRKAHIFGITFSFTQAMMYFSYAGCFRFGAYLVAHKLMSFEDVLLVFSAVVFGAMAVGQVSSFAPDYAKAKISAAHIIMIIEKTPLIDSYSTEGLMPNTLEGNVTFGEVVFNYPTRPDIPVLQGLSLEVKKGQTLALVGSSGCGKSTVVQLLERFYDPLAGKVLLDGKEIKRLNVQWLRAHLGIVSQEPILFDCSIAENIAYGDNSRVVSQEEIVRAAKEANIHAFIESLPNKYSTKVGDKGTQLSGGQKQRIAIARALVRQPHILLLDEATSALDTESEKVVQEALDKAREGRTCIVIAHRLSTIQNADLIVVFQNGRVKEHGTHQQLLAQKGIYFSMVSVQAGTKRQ
Experiment: Vanadate-sensitive ATPase stimulation in recombinant human P-gp membranes; supported by [3H]-paclitaxel accumulation/efflux in cells
Please provide measured pEC50 for the entries that follow.
Numbers only, as −log10 of the molar value.

Return reported pEC50 values for all items listed beneath this line.
1. CC1=CC[C@H]2[C@H](CC[C@]2(C)O)C(C)(C)[C@H]1CC[C@H]1[C@]2(C)CC[C@H](OC(=O)c3ccncc3)C(C)(C)O[C@H]2CC[C@@]1(C)O [SSJ32, sipholenol A-4-O-isonicotinate]
2. CC(=O)O[C@H]1CC[C@]2(C)[C@H](CC[C@@](C)(O)[C@H]2CC[C@H]2C(C)=CC[C@H]3[C@H](CC[C@]3(C)O)C2(C)C)OC1(C)C [SSJ26, sipholenol A-4-O-acetate]

1. 6.22
2. 6.59
